// values below are reported pKd
Biological target: MAST1, Q9Y2H9
Sequence (Q9Y2H9 962-1065): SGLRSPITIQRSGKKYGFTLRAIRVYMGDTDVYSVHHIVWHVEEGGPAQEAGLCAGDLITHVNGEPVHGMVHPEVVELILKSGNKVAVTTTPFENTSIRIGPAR
Experiment: holdup assay
Set-up: key: below the threshold = too weak to quantify, mostly under pKd 3.1 to 4
Details: plain residues with an end cap or a label only (N-terminal biotin on a linker: ahx)

binder	pKd
VNENQKEYFF [CNTNAP4, Q9C0A0]	4.3
PKMKLNETSF [SHKBP1, Q8TBC3]	4.32
YNSFLSVTTV [PDZRN3, Q9UPQ7]	3.98
